Kindly supply the reported OD405 values for the records listed here.
# SYSTEM_TESTED: T1, purified recombinant human CD40 protein (human, UniProt P25942 21-193)
# T1 construct: also called recombinant CD40
# EXPERIMENT_SUMMARY: ELISA on coated recombinant human CD40; chimeric antibody supernatant
One number for each entry, in OD405.

List the reported OD405 of each binder below.
1. 7C11 rabbit-human chimeric anti-CD40 antibody (antibody, V domains shown, tested as cell culture supernatant) VH: QSLEESGGRLVTPGGSLTLTCTVSGIDLSTNGMGWVRQGPGKGLEWIGTIRVTAGTDYANWAKGRFTISKTSSTTVDLKMTSLTTEDTATYFCARGHANNDAYVYFNLWGQGTLVTVSS VL: AFELTQTPASVEAGVGGTVTIKCQASQSIDRYLAWYQQKSGQPPKLLISYTSKLASGVPSRFKGSGSGTEFTLTISDLECADAATYYCQSYFTSDDANSFGGGTEVVVK
2. 3E12 rabbit-human chimeric anti-CD40 antibody (antibody, V domains shown, tested as cell culture supernatant) VH: QSVKESEGGLFKPTDTLTLTCTVSGFSFSNYRMIWVRQAPGNGLEWIGVIDRNDNTYYATWAKSRSTITRNTNLNTVTLKMTSLTAADTATYFCARDTDYTTGGIWGPGTLVTVSS VL: DIVMTQTPASVSAAVGGTVTIKCQASQNIGDNLAWHQQKPGQPPKLLIYGASTLASGVPSRFKGSGSRTEYTLTISDLECADAATYYCQSNYYSTSSSYYNSFGGGTEVVVK
3. 4A7 rabbit-human chimeric anti-CD40 antibody (antibody, V domains shown, tested as cell culture supernatant) VH: QSVEESGGRLVTPGTPLTLTCTVSGFSLSTYAMSWVRQAPGKGLEWIGIIDGGGFAVYANWAKGRFTISKASTTVDLKLPSPTTEDTATYFCARGVTFFNLWGPGTLVTVSS VL: DIVMTQTPASVEAAVGDTVTIKCQASQSISSALAWYQQKPGQPPKLLIYRASTLESGVPSRFKGSGSGTEFTLTISDLECADAATYYCQSYYYSSGGSYDYAFGGGTEVVVK

Found:
[1.8, 1.39, 1.65]
